Experiment: inhibitors of TNFa-induced NFkB p65 translocation, primary screen, imaging, HUVEC, MLSMR starter and 10KST1 sets (AID 438);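 note: compound added about 3h40 before a 20 min TNFalpha stimulation; signal is the nuclear over cytoplasmic p65 intensity ratio per well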
Details: HUVEC TNFa-induced p65 nuclear translocation; at 2 µM, active compounds read high, 0% TNFa-plus-vehicle, 100% no-TNFa wells
PROPERTY_MEASURED: inhibition (%)

1) CCN(CC)C(=O)C1CCN(c2ncnc3c2cnn3-c2ccc(C)cc2C)CC1; -8.2
2) O=P1(O)C=C(c2ccccc2)NC(c2ccccc2)=C1; 3.4
3) CCOC(=O)Nc1cc(OC)c(OC)cc1Cc1nccc2cc(OC)c(OC)cc12; -1.8
4) CCOC(=O)C1(c2ccccc2)NC(c2ccc(N(C)C)cc2)C2C(=O)N(C)C(=O)C21 (stereo not drawn); -4
5) O=C(/C=N/O)NCc1ccncc1; 1.2
6) CCOCCCNC(=O)C(NC(=O)c1ccccn1)c1ccc(C)cc1 (stereo not drawn); -13.4
7) CCOc1ccc(C2C=C(c3ccc(F)cc3)Nc3ncnn32)cc1 (stereo not drawn); 11.5
8) Cc1cc(C(=O)NCc2cccnc2)n(-c2ccccc2)n1; -0.9
9) Cc1nc2sc(C(c3ccco3)N3CCN(c4ccccc4F)CC3)c(O)n2n1 (stereo not drawn); -5.9
10) CCC(=O)N(Cc1cccs1)C1CCOC(C)(C)C1 (stereo not drawn); 6.5
11) Cc1cc(C)n2c(SCCN3C(=O)c4ccccc4C3=O)nnc2n1; -5.1
12) CCCCC(=O)NCCNc1nc2c(c(=O)n(C)c(=O)n2C)n1Cc1ccccc1; -6.3
13) CSc1nc2[nH]c3c(c2c2ncnn12)CCCC3; -3.6
14) CC(NC(=O)Nc1nnc(C(F)(F)F)s1)(C(F)(F)F)C(F)(F)F; 3.6
15) CC1(C)Cc2c(C#N)c(SCC(=O)c3ccccc3)nc(N3CCOCC3)c2CS1; -9.1
16) C/C(NC(=O)c1cccs1)=C1\C(=O)C[C@@H]2[C@H]1C2(C)C; -1.6
17) COCCCNC(=O)c1c(N)n(/N=C/c2ccccn2)c2nc3ccccc3nc12; 7.3
18) CCCCc1[nH]c(=O)c(C#N)c2c1CSC(C)(C)C2; 0.5
19) COc1ccc(Nc2ncc3c(n2)CC(c2ccc(OC)cc2)CC3=O)cc1 (stereo not drawn); 6.3
20) O=C(Nc1ccc(N2CCN(C(=O)c3ccccc3)CC2)c(Cl)c1)c1ccc(Br)o1; -6.8
21) O=C(O)c1cc(-c2ccccc2Cl)n[nH]1; 8
22) CC1(C)NC(=O)N(CCOc2cccc(Cl)c2Cl)C1=O; -1.1
23) c1ccc(-n2ncc3c(N4CCCC4)ncnc32)cc1; -7

* * *

Molecular target: Alpha-2C adrenergic receptor (Homo sapiens) (UniProt P18825)
Sequence (P18825 whole entry, looked up): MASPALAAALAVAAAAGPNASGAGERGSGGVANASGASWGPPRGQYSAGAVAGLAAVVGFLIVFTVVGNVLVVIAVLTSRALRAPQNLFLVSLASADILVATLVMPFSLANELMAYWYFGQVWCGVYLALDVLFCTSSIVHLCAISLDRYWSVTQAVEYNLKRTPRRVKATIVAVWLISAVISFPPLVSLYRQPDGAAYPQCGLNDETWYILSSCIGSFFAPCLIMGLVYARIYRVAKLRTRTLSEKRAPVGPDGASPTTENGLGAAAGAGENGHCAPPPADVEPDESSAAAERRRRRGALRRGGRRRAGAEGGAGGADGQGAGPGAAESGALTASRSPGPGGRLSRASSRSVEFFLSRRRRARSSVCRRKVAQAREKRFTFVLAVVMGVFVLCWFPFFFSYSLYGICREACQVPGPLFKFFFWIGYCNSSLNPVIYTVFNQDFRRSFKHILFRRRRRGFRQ
Experiment: modulators of alpha2C/GIRK thallium flux, primary screen, cell-based, HEK293 alpha2C/GIRK1/2 (AID 624);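 note: slope of fluorescence ratio to pre-addition baseline per second over 15 to 24 s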
Conditions: thallium flux BTC fluorescence, at 10 µM, actives lie on both sides
The label depends only on slope: Yes if it is at least 0.006, No if it is smaller.

1. CCOC(=O)c1cc2c(=O)n3ccccc3nc2n(CC2CCCO2)c1=NC(C)=O (stereo not given); No
2. CC(C)C(NC(=O)OCc1ccccc1)C(=O)OCC(=O)NCc1ccco1 (stereo not given); No
3. COc1ccc(C2C3=C(CCCC3=O)Nc3nc(SCc4ccccc4)nn32)cc1OC (stereo not given); Yes
4. O=C1CCCC2=C1C(c1cccc(Br)c1)n1nc(-c3ccco3)nc1N2 (stereo not given); Yes

* * *

Listing of entries alongside the reported inhibition.
Test: inhibitors of Sendai virus-induced IRF3 signaling, primary screen, TLR/RLR signaling modifier project, cell-based, Sendai virus stimulus, luciferase, 10K MLSCN set (AID 602276);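 note: firefly luciferase from ISG56 promoter only with Renilla not read in this screen; 0% = Sendai virus plus DMSO and 100% = medium plus DMSO without virus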
Conditions: HEK293 RL24 IRF3 luciferase reporter, at 10 µM, active compounds read high
PROPERTY_MEASURED: inhibition (%)

1. Cc1ccc(S(=O)(=O)N(CC(=O)NCc2ccco2)Cc2ccccc2F)cc1; 8.9
2. CCCCCCC(C)n1[nH]c(=O)c2c(C)cc(=O)[nH]c21 (stereo not drawn); 3.89
3. CCS(=O)(=O)N1CCC(C(=O)NC2CCCCCCC2)CC1; -13
4. COc1ccc(N2C(=O)CC(N3CCCC4CCCCC43)C2=O)cc1 (stereo not drawn); 8.26
5. Clc1cc2c(c(Cn3cnc4ccccc43)c1)OCOC2; 7.15
6. CC1CCN(CCCNC(=O)c2coc3nc4ccccc4nc23)CC1; -4.6
7. CCN(CC)CC(C)CNC(=O)CC(C(=O)N1CCc2ccccc21)n1ccnc1 (stereo not drawn); 3.93
8. COC(=O)c1cc2ccsc2n1Cc1nc(-c2ccc(OC)cc2)oc1C; -25.1
9. CCOc1ccc2c(c1)c1nnc(SCC(=O)N3CCC(C)CC3)nc1n2C; -10.6
10. CN(C)CCCN1C(=O)CSC1c1ccccc1 (stereo not drawn); 4.6
11. CCOC(=O)C(CCc1nnc(N)s1)C(=O)OCC; 16.5
12. CCc1ccc2[nH]c(=O)c(C(c3nnnn3CC3CCCO3)N3CCCc4ccccc43)cc2c1 (stereo not drawn); 22.7
13. COc1ccc(C(=O)N2CCCc3ccccc32)cc1; 7.26
14. COc1cc(S(=O)(=O)N2CCC(N3CCCCC3)CC2)ccc1-n1cnnn1; -9.28
15. CCCc1cc(=O)[nH]c(SCc2ccccc2)n1; 9.4
16. COc1ccc(C)cc1-n1nnnc1SCC(=O)Nc1cc(C)on1; 2.92
17. CCOC(=O)C1=C(O)CCn2c1nc1ccccc12; 9.43
18. CN(C)S(=O)(=O)c1ccc(/C(O)=C2/C(=O)C(=O)N(CCN3CCCCC3)C2c2cccnc2)cc1 (stereo not drawn); -17.9
19. Cc1ccc(-c2noc(CCC(=O)NC3CCCc4ccccc43)n2)cc1 (stereo not drawn); 19.1
20. O=C(O)c1cccc(S(=O)(=O)N2CCOCC2)c1; -16
21. COc1cccc(-c2nc(CS(=O)(=O)CC(=O)N3CCc4ccccc4C3)c(C)o2)c1; 6.4
22. CCOC(=O)c1sc(NC(=O)CSc2nnc(-c3ccc(OC)cc3)n2CCOC)nc1C; 13.8
23. Cc1ccccc1OCC(O)CN (stereo not drawn); -20.3

* * *

Assay: inhibitors of Chlamydomonas gravitaxis, primary screen, whole organism, Chlamydomonas reinhardtii, WT vs cilia-less mutant, absorbance, 96-well (AID 463189);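 note: 0% = wild type cc124 cells in DMSO and 100% = ciliumless bld1 mutant cells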
Conditions: OD600 absorbance, 2 days, at 10 µM
Calls of active or inactive are those of the source.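 The calls were made as follows: active = inhibition at or above 50% relative to wild type and mutant plate controls; inactive = inhibition below 50%.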
Outcomes: label 1 for active, label 0 for inactive

1. c1ccc2c(c1)CCOC2CNCCCN1CCCCC1 (configuration not stated); label 0
2. O=c1[nH]c2cnccc2n1-c1ccccc1; label 0
3. COn1c(SC2CCCCC2)nc2ccccc2c1=O; label 0
4. COc1ccc(CCNc2oc(COc3ccccc3)nc2C#N)cc1; label 0
5. O=S(=O)(c1ccccc1)N(CC(O)CN1CCCCC1)c1ccccc1 (configuration not stated); label 0
6. CCOc1ccc(C2CC(c3ccccc3)Nc3nc(N)nn32)cc1 (configuration not stated); label 0
7. O=C(O)C1CC(=O)N(Cc2cccs2)C1 (configuration not stated); label 0
8. CCSc1nnc(NC(=O)C(C(F)(F)F)C(F)(F)F)s1; label 0
9. N#C/C(=C\c1c(N2CCC(C(N)=O)CC2)nc2ccccn2c1=O)S(=O)(=O)c1ccccc1; label 0
10. Cc1ccc(CNc2oc(COc3ccccc3Cl)nc2C#N)cc1; label 0
11. CSc1nc2[nH]c3c(c2c2nncn12)CC(C)(C)OC3; label 0
12. Cn1c(=O)n(CC(=O)Nc2ccccc2)c2ccccc21; label 0
13. C=CCNc1nc(N2CCCCC2)c(C#N)c2c1CN(Cc1ccccc1)CC2; label 0
14. Nc1ccc2c3c(cccc13)CC2; label 0
15. COc1ccccc1-n1c(N)c(C(=O)NCC2CCCO2)c2nc3ccccc3nc21 (configuration not stated); label 0
16. O=C1C2ON(c3ccccc3)C(c3cccnc3)C2C(=O)N1c1ccc(Cl)c(Cl)c1 (configuration not stated); label 0
17. Cn1c(=O)c2c(nc(N3CCC(C(N)=O)CC3)n2CCSc2nc3ccccc3s2)n(C)c1=O; label 0
18. Cc1cc(O)ccc1-c1cnc2ccccc2n1; label 0
19. Cc1cc(CC(=O)O)c(C)cc1CC(=O)O; label 0
20. CN1CCc2c(n(CC(O)CN3C(=O)c4ccccc4S3(=O)=O)c3ccccc23)C1=O (configuration not stated); label 0
21. Cc1cc(=O)oc2cc(OCC(=O)NCc3cccnc3)ccc12; label 0
22. CCCCC(=O)c1c(C)cc(C)[nH]c1=O; label 0
23. CCc1nc(NCC(C)C)c(C#N)c2c1COC(C)(C)C2; label 0
24. CC(C)c1[nH]c(=O)c(C#N)c2c1CSC(C)(C)C2; label 0
25. CC(=O)/C=C(\C)NCCNc1c(F)c(F)c(CO)c(F)c1F; label 0
26. Cc1cc2c(c(=O)o1)C(CC(C)C)C(C#N)=C(N)O2 (configuration not stated); label 0
27. CCCOc1ccc(C2/C(=C(/O)c3ccccc3)C(=O)C(=O)N2CCCN(C)C)cc1OC (configuration not stated); label 0
28. CNc1oc(-c2ccccc2Cl)nc1C#N; label 0
29. c1ccc(-n2c(Cc3cccnc3)nc3cnccc32)cc1; label 0
30. O=C(NCc1ccccn1)c1coc(=O)c(Br)c1; label 0
31. Cn1c(NCc2cccnc2)nc2c1c(=O)n(Cc1ccccc1F)c(=O)n2C; label 0
32. COCCCNC(=O)c1c(N)n(/N=C/c2ccccn2)c2nc3ccccc3nc12; label 1
33. O=C1C(=O)N(CCCn2ccnc2)C(c2ccccn2)/C1=C(/O)c1ccccc1 (configuration not stated); label 0
34. C=CCn1c(N)c(C(=O)Nc2ccccc2)c2nc3ccccc3nc21; label 1
35. CN1CCN(Cc2c(O)c(Cl)cc3c(-c4ccccc4)cc(=O)oc23)CC1; label 0
36. CN(C)CCCn1c(NC(=O)C2CCCCC2)nc2ccccc21; label 0
37. CCOc1cccc(NC(=O)C2CC(=O)NC(=Nc3ccccc3)S2)c1 (configuration not stated); label 0
38. CCCC(CCC(=O)Nc1ccc(C(=O)OC)cc1)C(=O)O (configuration not stated); label 0
39. CCCC(CCC(=O)Nc1ccc(C(=O)OCC)cc1)C(=O)O (configuration not stated); label 0
40. CCCCCOc1ccc(C(=O)NCC(=O)NCC(=O)OCC)cc1; label 0
41. CCSc1nnc(NC(=O)NC(CC)(C(F)(F)F)C(F)(F)F)s1; label 0
42. CCOC(=O)c1[nH]c2ccc(C)cc2c1N=CN(CC)CC; label 0
43. CCC1SC2=NC(C)=C(C(=O)OCCOC)C(c3ccc(C(=O)OC)cc3)N2C1=O (configuration not stated); label 0
44. COC(=O)c1c(-n2cnnn2)sc(C)c1C; label 0
45. Cc1nn(C)cc1/C=N/n1nnnc1N; label 0
46. COc1ccc(/C(O)=C2/C(=O)C(=O)N(Cc3ccco3)C2c2cccs2)cc1 (configuration not stated); label 0
47. Brc1ccc(-c2cnnc(N3CCCC3)n2)cc1; label 0
